experiment: Plasma protein binding; assay type: in vitro ADME; settings: read-out: free fraction of the total plasma concentration
assay readout: fraction unbound

**Query** Could you share which fraction unbound value was measured for Cc1nc(N(C)C(=O)Cc2ccc(-c3ccccn3)cc2)sc1S(N)(=O)=O [pritelivir] ?
**Result** 0.02 to 0.03

---

experiment: Example 5: comparative pritelivir solution PK study in rat following IV/SC administration; type: in vivo, male Sprague Dawley rats; conditions: male, Sprague Dawley, plasma, intravenous (IV), 1 mg/kg, solution, n = 3
assay readout: AUC(0-t) (ng·h/mL)
Return type: number; implicit unit ng·h/mL.

**Query** Look at this molecule and give its reported AUC(0-t). Cc1nc(N(C)C(=O)Cc2ccc(-c3ccccn3)cc2)sc1S(N)(=O)=O [pritelivir]
**Result** 31800

---

assay: Example 13: Compound 1 IV PK study in monkey; format: in vivo, male cynomolgus monkeys; settings: male, cynomolgus, plasma, 0.25 mg/kg, read-out: Monkey t1/2 (converted)
assay readout: half-life (min)
Expressed in min, but write only the number.

**Query** I'd like to know its half-life. The molecule in question is Cc1nc(N2CCCN(c3ccc(-c4cc(F)ccc4F)cc3)C2=O)sc1S(N)(=O)=O
**Result** 2980

---

system: HSV-1; test: HSV-1 antiviral assay, cytopathic effect (CPE) inhibition in vero cells; assay type: cell-based; conditions: Human alphaherpesvirus 1, Vero, 96 h, 4 days, read-out: in vitro EC50 against HSV-1
assay readout: EC50 (nM)
Please state the figure in nM; there is no need to write the unit.

**Query** // returns reported EC50 for input Cc1nc(N(C)C(=O)Cc2ccc(-c3ccccn3)cc2)sc1S(N)(=O)=O
**Result** 47

---

system: HSV-2 G strain; test: HSV-2 antiviral assay, cytopathic effect (CPE) inhibition in vero cells; assay type: cell-based; conditions: Human alphaherpesvirus 2, Vero, 120 h, CPE assay, vero cells, 5 days; read-out: in vitro EC50 against HSV-2
assay readout: pEC50
Conceptually, pEC50 converts a concentration in mol/L into minus its log10.

**Query** # lookup: pEC50 of Cc1nc(N(C)C(=O)Cc2ccc(-c3ccccn3)cc2)sc1S(N)(=O)=O
**Result** 7.26

---

assay: Example 13: Compound 1 IV PK study in dog; format: in vivo, male non-naïve Beagle dogs; details: male, beagle, plasma, 0.15 mg/kg, read-out: Dog t1/2 (converted)
assay readout: half-life (h)
Lab book: enter the figure in h, no units written.

**Query** Would you kindly share the measured half-life for Cc1nc(N2CCCN(c3ccc(-c4cc(F)ccc4F)cc3)C2=O)sc1S(N)(=O)=O [Compound 1] ?
**Result** 34.9

---

assay: Example 13: Compound 1 IV PK study in rat; type: in vivo, male Sprague Dawley rats; settings: male, Sprague Dawley, plasma, 1 mg/kg, read-out: Rat t1/2 (converted)
assay readout: half-life (h)
Give the value in h but do not write h after it.

**Query** Requested read-out: half-life. Entry: Cc1nc(N2CCCN(c3ccc(-c4cc(F)ccc4F)cc3)C2=O)sc1S(N)(=O)=O [Compound 1]
**Result** 22
